- assay system: T1, full length recombinant human 2N4R tau (human, UniProt P10636 1-758)
- T1 construct: bought from rPeptide; pHrodo Red maleimide-labelled where it stands in uptake assays; also called tau1-441; full length tau
- T1 sequence (P10636 other isoform, or with tags, fused parts or gaps limits assumed): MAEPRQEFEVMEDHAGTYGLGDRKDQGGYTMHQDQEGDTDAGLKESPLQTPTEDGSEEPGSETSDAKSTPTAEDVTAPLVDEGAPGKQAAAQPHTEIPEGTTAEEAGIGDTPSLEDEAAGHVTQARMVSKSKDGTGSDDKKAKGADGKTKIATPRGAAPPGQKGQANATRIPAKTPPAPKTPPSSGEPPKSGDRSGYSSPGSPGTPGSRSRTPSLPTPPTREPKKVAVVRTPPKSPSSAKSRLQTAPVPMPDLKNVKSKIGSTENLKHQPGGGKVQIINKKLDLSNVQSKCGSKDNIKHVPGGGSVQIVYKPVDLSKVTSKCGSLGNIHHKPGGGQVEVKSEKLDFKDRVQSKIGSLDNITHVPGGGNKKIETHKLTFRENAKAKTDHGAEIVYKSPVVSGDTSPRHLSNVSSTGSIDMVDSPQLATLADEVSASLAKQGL
- procedure text: SPR SCK, IgG on Protein A, tau in flow
pKd: −log10 of the molar value.
pKd listing for selected binders.

binder	pKd
#44_VH4VK4_H14/pVL (antibody, V domains shown, also called Clone VH4_H14; #44_VH4_H14) VH: QVQLQESGPGLVKPSETLSLTCTVSGIDLSSYAMAWVRQAPGKGLEWIGAIDSAGSTFYASWVKGRSTISKDTSKTTVDLQMTSLTAEDTATYFCARDSGAFDPWGQGTLVTVSS VL: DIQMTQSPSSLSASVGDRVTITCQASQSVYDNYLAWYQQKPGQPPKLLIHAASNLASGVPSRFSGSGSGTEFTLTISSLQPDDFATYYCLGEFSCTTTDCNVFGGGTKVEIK	8.20
#44_VH4VK4_H02/pVL (antibody, V domains shown, also called Clone VH4_H02; #44_VH4_H02) VH: QVQLQESGPGLVKPSETLSLTCTVSGIDLSSYAMAWVRQAPGKGLEWIGCIDRRGGTFYASWVKGRFTISKDTSKTTVDLQMTSLTAEDTATYFCARDRGDFDVWGQGTLVTVSS VL: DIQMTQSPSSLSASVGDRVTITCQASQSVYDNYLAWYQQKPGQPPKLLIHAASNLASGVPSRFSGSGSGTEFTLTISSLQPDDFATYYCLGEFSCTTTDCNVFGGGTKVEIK	8.93
#44_VH4VK4_H17/pVL (antibody, V domains shown, also called Clone VH4_H17; #44_VH4_H17) VH: QVQLQESGPGLVKPSETLSLTCTVSGIDLSSYAMAWVRQAPGKGLEWIGAIDRVGNTFYASWVKGRFTISKDTSKTTVDLQMTSLTAEDTATYFCARDSGAFDPWGQGTLVTVSS VL: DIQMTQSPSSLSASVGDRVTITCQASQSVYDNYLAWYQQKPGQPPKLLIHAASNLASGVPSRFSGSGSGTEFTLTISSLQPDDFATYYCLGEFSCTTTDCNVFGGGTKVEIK	8.20
#44_VH4VK4_H16/pVL (antibody, V domains shown, also called Clone VH4_H16; #44_VH4_H16) VH: QVQLQESGPGLVKPSETLSLTCTVSGIDLSSYAMAWVRQAPGKGLEWIGAIDRAGNTFYASWVKGRFTISKDTSKTTVDLQMTSLTAEDTATYFCARDSGAFDPWGQGTLVTVSS VL: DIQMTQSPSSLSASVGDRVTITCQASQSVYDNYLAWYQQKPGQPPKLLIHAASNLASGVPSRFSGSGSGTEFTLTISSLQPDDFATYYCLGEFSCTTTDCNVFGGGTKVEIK	8.02
#44_VH4_H09/L2 (antibody, V domains shown, also called Clone VH4_H09/L2) VH: QVQLQESGPGLVKPSETLSLTCTVSGIDLSSYAMAWVRQAPGKGLEWIGAIDARGNTFYASWVKGRFTISKDTSKTTVDLQMTSLTAEDTATYFCARDSGAFDPWGQGTLVTVSS VL: DIQMTQSPSSLSASVGDRVTITCQASQSVYDNYLAWYQQKPGQPPKLLIHAASNLASGVPSRFSGSGSGTEFTLTISSLQPDDFATYYCLGEFSCQDTDCNVFGGGTKVEIKR	7.84
